Field: protein stability index. Provide a value for each of the variants that follow.
B1: BTBD1 (parent)
chain: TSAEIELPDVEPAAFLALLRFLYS

Variants of: B1
Assay: protein stability index of a GFP-peptide fusion (GPS, HEK-293T) (PSI 1-6); higher = more stable;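 note: lentivirally expressed fusions sorted by FACS into six bins by GFP to DsRed ratio, PSI derived from sequencing read proportions per bin multiplied by bin number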
Settings: c terminus: a fixed tail appended

Input: Returns the measured protein stability index for the input variant. Input: V10T
Output: 2.01

Input: Which protein stability index value is on record for D9V ?
Output: 1.95

Input: What does the record list as protein stability index for V10M ?
Output: 1.95

Input: Would you mind telling me what protein stability index value was observed for I5G ?
Output: 2.55

Input: protein stability index for V10A ?
Output: 1.8

Input: protein stability index lookup needed for E4P , thanks.
Output: 1.64

Input: Fill blank: measured protein stability index of the variant L16C is ____.
Output: 1.99

Input: Returns the measured protein stability index for the input variant. Input: Y23R
Output: 2.26

Input: Name the recorded protein stability index for L22V .
Output: 2.15

Input: Which value of protein stability index has been reported for F21K in the records?
Output: 1.78

Input: # input variant: A13M ; wanted: its protein stability index
Output: 2.02

Input: Which protein stability index is reported for this variant? L19V
Output: 1.72

Input: Request the reported protein stability index associated with P12N
Output: 1.95

Input: Fill in: protein stability index of E11P is ___
Output: 1.98

Input: Requested read-out: protein stability index. Entry: R20D
Output: 1.38

Input: Fill blank: measured protein stability index of the variant L19K is ____.
Output: 2.07

Input: Any idea what protein stability index was measured for L18M ?
Output: 1.72

Input: Sample A13G — what was its protein stability index?
Output: 1.77

Input: For the variant S24I , what protein stability index is on record?
Output: 2.32

Input: Reported protein stability index for E11R : what is it?
Output: 2.11

Input: Value lookup for protein stability index; key = F21D
Output: 1.85

Input: I'd like to know its protein stability index. The variant in question is F15S
Output: 2.04

Input: GET /values?readout=protein stability index&item= L22S
Output: 1.16

Input: State the recorded protein stability index for this entry: L22P
Output: 2.26

Input: # get_value(readout='protein stability index', item= E6W )
Output: 1.85

Input: Which protein stability index is listed for E4I ?
Output: 2.07

Input: Entry under review: S24Q . Reported protein stability index?
Output: 2.33

Input: Which protein stability index is listed for V10C ?
Output: 1.67

Input: For the variant shown here, A17Y , give the reported protein stability index.
Output: 1.98

Input: For A3W , what is its reported protein stability index?
Output: 1.41
